Biological target: TPR-MET fusion protein (Homo sapiens, UniProt P08581)
Construct: the MET gene on chromosome 7 encoding for its cytoplasmic region catalytic domain; host or cells: MNNGHOS cells; the other entry of the earlier key: TPR (P12270, Nucleoprotein TPR)
Sequence (P08581 with tags, fused parts or gaps): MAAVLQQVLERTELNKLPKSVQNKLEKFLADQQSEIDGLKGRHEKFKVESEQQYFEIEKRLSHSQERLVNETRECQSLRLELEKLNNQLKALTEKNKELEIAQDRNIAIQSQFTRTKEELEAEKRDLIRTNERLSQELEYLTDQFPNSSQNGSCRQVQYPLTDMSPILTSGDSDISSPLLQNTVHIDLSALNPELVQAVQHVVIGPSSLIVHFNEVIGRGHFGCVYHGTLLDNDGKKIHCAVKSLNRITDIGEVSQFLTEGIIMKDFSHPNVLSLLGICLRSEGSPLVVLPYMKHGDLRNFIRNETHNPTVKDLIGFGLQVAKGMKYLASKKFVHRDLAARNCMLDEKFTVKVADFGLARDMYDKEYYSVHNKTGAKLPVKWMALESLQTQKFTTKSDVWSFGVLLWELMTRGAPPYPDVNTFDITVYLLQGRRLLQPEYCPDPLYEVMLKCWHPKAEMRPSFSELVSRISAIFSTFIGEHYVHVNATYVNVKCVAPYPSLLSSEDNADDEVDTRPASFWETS
Experiment: C-Met phosphorylation cell-based assay (MNNGHOS cells)
test.readout: pIC50
Just the number, please; pIC50 means minus log10 of the concentration in mol/L.

Quick check: pIC50 of "Cn1cncc1-c1cc2nccc(Oc3ccc(NC(=O)CC(=O)Nc4ccccc4)cc3F)c2s1" ? 6.81

* * *

Kindly supply the reported IC50 values for the records listed here.
Molecular target: VEGF receptor KDR (Homo sapiens, UniProt P35968)
Construct: made in house; host or cells: Sf9 cells (Spodoptera frugiperda), baculovirus
Sequence (P35968 806-1356): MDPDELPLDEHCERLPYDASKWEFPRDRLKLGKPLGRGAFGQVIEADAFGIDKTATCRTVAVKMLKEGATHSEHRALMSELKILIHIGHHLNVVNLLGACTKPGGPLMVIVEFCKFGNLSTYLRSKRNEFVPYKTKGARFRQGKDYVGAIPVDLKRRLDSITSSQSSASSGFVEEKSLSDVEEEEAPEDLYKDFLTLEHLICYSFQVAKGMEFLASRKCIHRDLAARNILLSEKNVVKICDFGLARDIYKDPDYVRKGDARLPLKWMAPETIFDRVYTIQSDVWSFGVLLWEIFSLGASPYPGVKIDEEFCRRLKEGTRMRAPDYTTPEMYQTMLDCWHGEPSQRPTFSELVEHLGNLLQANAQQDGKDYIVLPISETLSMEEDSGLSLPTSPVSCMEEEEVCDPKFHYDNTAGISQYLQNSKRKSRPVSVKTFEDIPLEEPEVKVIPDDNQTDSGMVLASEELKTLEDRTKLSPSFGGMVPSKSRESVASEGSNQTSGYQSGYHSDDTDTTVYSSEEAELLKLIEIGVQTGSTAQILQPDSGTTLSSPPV
Assay: In vitro receptor tyrosine kinase assay (DELFIA), VEGF receptor KDR
Type: biochemical
Settings: read-out: VEGFR IC50

Quick check: IC50 of Cn1cnc(-c2cc3nccc(Oc4ccc(NC(CC(=O)Nc5ccc(F)cc5)C(F)(F)F)cc4F)c3s2)c1 (centres unmarked) ? < 50 nM

Quick check: IC50 of "CCn1cncc1-c1cc2nccc(Oc3ccc(NC(=O)CC(=O)Nc4ccccc4OC)cc3F)c2s1" ? 50 to 250 nM

Quick check: IC50 of "COc1ccccc1NC(=O)C1(C(=O)Nc2ccc(Oc3ccnc4cc(-c5cn(CCN6CCCC6)cn5)sc34)c(F)c2)CC1" ? < 50 nM

Quick check: IC50 of "CN(C)CCn1cnc(-c2cc3nccc(Oc4ccc(NC(=O)CC(=O)Nc5ccccc5)cc4F)c3s2)c1" ? < 50 nM

Quick check: IC50 of "CCn1cnc(-c2cc3nccc(Oc4ccc(NC(=S)N5CCN(c6ccccc6)C5=O)cc4F)c3s2)c1" ? < 50 nM

Quick check: IC50 of COc1ccccc1NC(=O)CC(=O)Nc1ccc(Oc2ccnc3cc(-c4cncn4C)sc23)c(F)c1 [drawing 289] ? < 50 nM

Quick check: IC50 of "Cn1ccnc1-c1cc2nccc(Oc3ccc(NC(=O)CC(=O)OC4CCNCC4)cc3F)c2s1" ? > 500 nM

Quick check: IC50 of Cn1cnc(-c2cc3nccc(Oc4ccc(NC(=O)CC(Nc5ccccc5)C(F)(F)F)cc4F)c3s2)c1 (centres unmarked) ? 50 to 250 nM

* * *

Biological target: VEGF receptor KDR (Homo sapiens)
Construct: made in house; host or cells: Sf9 cells (Spodoptera frugiperda), baculovirus
Assay: In vitro receptor tyrosine kinase assay (DELFIA), VEGF receptor KDR
Assay type: biochemical
Settings: read-out: VEGFR IC50
pIC50: −log10 of the molar value.
test.readout: pIC50

Quick check: pIC50 of "CCn1cnc(-c2cc3nccc(Oc4ccc(NC(=O)CC(=O)N5CCc6ccccc65)cc4F)c3s2)c1" ? > 7.30

Quick check: pIC50 of "CCn1cnc(-c2cc3nccc(Oc4ccc(NC(=O)N5CCN(c6ccccc6)C5=O)cc4F)c3s2)c1" ? > 7.30

Quick check: pIC50 of Cn1cnc(-c2cc3nccc(Oc4ccc(NC(=O)C5CCN(c6ccc(F)cc6)C5=O)cc4F)c3s2)c1 (centres unmarked) ? > 7.30

Quick check: pIC50 of "CCn1cc(-c2cc3nccc(Oc4ccc(NC(=O)CC(=O)Nc5ccccc5OC)cc4F)c3s2)nc1CN(C)C" ? > 7.30

Quick check: pIC50 of "COc1ccccc1NC(=O)CC(=O)Nc1ccc(Oc2ccnc3cc(-c4cccc(CN5CCOCC5)c4)sc23)c(F)c1" ? 6.60 to 7.30

Quick check: pIC50 of "CN1CCN(Cc2ccc(-c3cc4nccc(Oc5ccc(NC(=O)N6CCN(c7ccccc7)C6=O)cc5F)c4s3)cc2)CC1" ? > 7.30

Quick check: pIC50 of "COc1ccccc1NC(=O)CC(=O)Nc1ccc(Oc2ccnc3cc(C(=O)N4CC(O)C4)sc23)c(F)c1" ? > 7.30

Quick check: pIC50 of "COc1ccccc1NC(=O)CC(=O)Nc1ccc(Oc2ccnc3cc(C(=O)NN(C)C)sc23)c(F)c1" ? < 6.30

* * *

Molecular target: recombinant human c-Met/HGF receptor (Homo sapiens, UniProt P08581)
Construct: His tag (pBlueBacHis2A vector); made in house; host or cells: Hi-5 cells (Trichoplusia ni), baculovirus
Sequence (P08581 1078-1337): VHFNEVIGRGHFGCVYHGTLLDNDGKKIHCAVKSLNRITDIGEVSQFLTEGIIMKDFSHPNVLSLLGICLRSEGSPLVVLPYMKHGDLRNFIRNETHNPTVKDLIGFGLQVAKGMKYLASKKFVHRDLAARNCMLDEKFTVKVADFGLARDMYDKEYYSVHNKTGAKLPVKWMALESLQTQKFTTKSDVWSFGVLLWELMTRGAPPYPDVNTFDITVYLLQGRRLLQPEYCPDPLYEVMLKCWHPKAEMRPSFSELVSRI
Test: In vitro receptor tyrosine kinase assay (DELFIA), c-Met/HGF receptor
Format: biochemical
Settings: read-out: CMET IC50
test.readout: IC50

Quick check: IC50 of "CN1CCN(C(=O)CC(=O)Nc2ccc(Oc3ccnc4cc(-c5cn(C)cn5)sc34)c(F)c2)c2ccccc21" ? < 50 nM

Quick check: IC50 of "Cn1ccnc1-c1cc2nccc(Oc3ccc(NC(=O)CC(=O)NC4CCNCC4)cc3F)c2s1" ? > 500 nM

Quick check: IC50 of CN(C)Cc1cccc(-c2cc3nccc(Oc4ccc(NC(=O)CC(=O)Nc5ccccc5F)cc4F)c3s2)c1 [drawing 316] ? < 50 nM

Quick check: IC50 of "Cn1ccnc1-c1cc2nccc(Oc3ccc(NC(=O)CC(=O)OC4CCNCC4)cc3F)c2s1" ? > 500 nM

Quick check: IC50 of "Cn1cnc(-c2cc3nccc(Oc4ccc(NC(=O)N5CCN(C6CCCCC6)C5=O)cc4F)c3s2)c1" ? < 50 nM

Quick check: IC50 of "CN1CCN(Cc2ccc(-c3cc4nccc(Oc5ccc(NC(=O)C6(C(=O)Nc7ccccc7)CC6)cc5F)c4s3)cc2)CC1" ? < 50 nM

Quick check: IC50 of "O=C(Nc1ccc(Nc2ccnc3cc(-c4cn(CCN5CCCC5)cn4)sc23)c(F)c1)N1CCN(c2ccccc2)C1=O" ? < 50 nM

Quick check: IC50 of "COc1ccccc1NC(=O)CC(=O)Nc1ccc(Oc2ccnc3cc(-c4c[nH]cn4)sc23)c(F)c1" ? 50 to 250 nM

Quick check: IC50 of "Cn1cnc(-c2cc3nccc(Oc4ccc(NC(=O)N5CCN(c6ccccc6)C5=O)cc4)c3s2)c1" ? < 50 nM

Quick check: IC50 of "CCCn1cnc(-c2cc3nccc(Oc4ccc(NC(=O)CC(=O)Nc5cccc(F)c5)cc4F)c3s2)c1" ? 50 to 250 nM

Quick check: IC50 of "Cn1cnc(-c2cc3nccc(Oc4ccc(NC(=O)C5(C(=O)Nc6ccccc6F)CC5)cc4F)c3s2)c1" ? < 50 nM

Quick check: IC50 of "Cn1ccnc1-c1cc2nccc(Oc3ccc(NC(=S)N4CCN(c5ccc(F)cc5)C4=O)cc3F)c2s1" ? 50 to 250 nM

Quick check: IC50 of "COc1ccccc1NC(=O)CC(=O)Nc1ccc(Oc2ccnc3cc(-c4cccc(OCCCNC(=N)N)c4)sc23)c(F)c1" ? 50 to 250 nM

Quick check: IC50 of "CCn1cnc(-c2cc3nccc(Oc4ccc(NC(=O)CC(=O)N(C)c5ccccc5)cc4F)c3s2)c1" ? < 50 nM

Quick check: IC50 of "Cn1cnc(-c2cc3nccc(Oc4ccc(NC(=O)C5(C(=O)Nc6ccccc6)CC5)cc4F)c3s2)c1" ? < 50 nM

Quick check: IC50 of "CCn1cnc(-c2cc3nccc(Oc4ccc(NC(=O)CC(=O)N5CCOc6ccccc65)cc4F)c3s2)c1" ? < 50 nM

Quick check: IC50 of CN(C)[C@@H]1CCN(C(=O)c2cc3nccc(Oc4ccc(NC(=O)CC(=O)Nc5ccccc5)cc4F)c3s2)C1 [drawing 294] ? 50 to 250 nM

Quick check: IC50 of O=C(Nc1ccc(Oc2ccnc3cc(-c4cn(CCCN5CCCC5)cn4)sc23)c(F)c1)C1CCN(c2ccccc2)C1=O (stereo not drawn) ? < 50 nM

Quick check: IC50 of COc1ccccc1NC(=O)CC(=O)Nc1ccc(Oc2ccnc3cc(-c4ccc(CN5CCCC5)cc4)sc23)c(F)c1 [drawing 295] ? 50 to 250 nM

Quick check: IC50 of "CN(C)CCn1cnc(-c2cc3nccc(Oc4ccc(NC(=O)N5CCN(c6ccc(F)cc6)C5=O)cc4F)c3s2)c1" ? < 50 nM

Quick check: IC50 of "COCn1cnc(-c2cc3nccc(Oc4ccc(NC(=O)CC(=O)Nc5ccccc5OC)cc4F)c3s2)c1" ? 50 to 250 nM

Quick check: IC50 of CN1CCN(Cc2ccc(-c3cc4nccc(Oc5ccc(NC(=O)C6CCN(c7ccccc7)C6=O)cc5F)c4s3)nc2)CC1 (stereo not drawn) ? 50 to 250 nM

Quick check: IC50 of "O=C(Nc1ccc(Oc2ccnc3cc(-c4cn(CCCN5CCCC5)cn4)sc23)c(F)c1)N1CCN(c2ccccc2F)C1=O" ? 50 to 250 nM

Quick check: IC50 of "CN1CC=C(c2cc3nccc(Oc4ccc(NC(=O)N5CCN(c6ccccc6)C5=O)cc4F)c3s2)CC1" ? < 50 nM

Quick check: IC50 of "CC(C)N(C(=O)CC(=O)Nc1ccc(Oc2ccnc3cc(C4=CCN(C)CC4)sc23)c(F)c1)c1ccccc1" ? 250 to 500 nM

Quick check: IC50 of "O=C(CC(=O)Nc1ccccc1F)Nc1ccc(Oc2ccnc3cc(-c4cccc(CN5CCOCC5)c4)sc23)c(F)c1" ? < 50 nM

Quick check: IC50 of CCn1cnc(-c2cc3nccc(Oc4ccc(NC(=O)C5(C(=O)Nc6ccccc6)CC5)cc4F)c3s2)c1 [drawing 317] ? < 50 nM

Quick check: IC50 of "CN(C)CC#Cc1cc2nccc(Oc3ccc(NC(=O)CC(=O)Nc4ccccc4F)cc3F)c2s1" ? 50 to 250 nM

Quick check: IC50 of "CN1CCN(CCN(C)Cc2ccc(-c3cc4nccc(Oc5ccc(NC(=O)N6CCN(c7ccccc7)C6=O)cc5F)c4s3)cc2)CC1" ? < 50 nM

Quick check: IC50 of "CN(C(=O)C1(C(=O)Nc2ccc(Oc3ccnc4cc(-c5cn(C)cn5)sc34)c(F)c2)CC1)c1ccccc1" ? > 500 nM

Quick check: IC50 of "CCn1cnc(-c2cc3nccc(Oc4ccc(NC(=O)N5CCN(c6ccccc6)C5=O)cc4F)c3s2)c1" ? < 50 nM

Quick check: IC50 of "CCn1cncc1-c1cc2nccc(Oc3ccc(NC(=O)CC(=O)Nc4ccccc4OC)cc3F)c2s1" ? 50 to 250 nM

Quick check: IC50 of "CCn1cnc(-c2cc3nccc(Oc4ccc(NC(=O)CC(=O)Nc5ccccc5O)cc4F)c3s2)c1" ? < 50 nM

Values were extracted from patent US8329726B2.
